TARGET OF ASSAY: T1, E. coli SSB (single-stranded DNA binding protein), wild type (E. coli, UniProt P0AGE0 1-178)
T1 construct: also called wt SSB; source: purified as described [13]
T1 sequence (P0AGE0 whole entry): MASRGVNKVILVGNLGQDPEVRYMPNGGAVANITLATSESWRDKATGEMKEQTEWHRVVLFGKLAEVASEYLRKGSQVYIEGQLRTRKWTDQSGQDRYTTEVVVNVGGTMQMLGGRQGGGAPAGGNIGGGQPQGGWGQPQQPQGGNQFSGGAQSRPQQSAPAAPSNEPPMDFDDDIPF
TEST: far-Western; purified SSB wt or mutant (0.5-5 µg) separated on 15% SDS-PAGE, blotted to PVDF, probed with 20-30 µg YbcN or Orf fused to MBP or GST; detected with anti-MBP or anti-GST antibodies
CONDITIONS USED: both partners purified

{"columns": ["BINDER", "binding result"],
 "data": [
  ["MBP-Orf K48A (natural protein, bacteriophage λ, Orf (NinB) of bacteriophage λ with K48A; Mutant derivative in pMALc2; One paragraph calls residue 48 Arg48, others Lys48; source: E. coli BL21-AI carrying the pMALc2 construct, purified (amylose) as described [13]) MKKLTFEIRSPAHQQNAIHAVQQILPDPTKPIVVTIQERNRSLDQNRALWACLGDVSRQVEWHGRWLDAESWKCVFTAALKQQDVVPNLAGNGFVVIGQSTSRMRVGEFAELLELIQAFGTERGVKWSDEARLALEWKARWGDRAA", "binds"],
  ["MBP-Orf W50A (natural protein, bacteriophage λ, Orf (NinB) of bacteriophage λ with W50A; Mutant derivative in pMALc2; source: E. coli BL21-AI carrying the pMALc2 construct, purified (amylose, heparin-agarose)) MKKLTFEIRSPAHQQNAIHAVQQILPDPTKPIVVTIQERNRSLDQNRKLAACLGDVSRQVEWHGRWLDAESWKCVFTAALKQQDVVPNLAGNGFVVIGQSTSRMRVGEFAELLELIQAFGTERGVKWSDEARLALEWKARWGDRAA", "binds"]
]}

Where these numbers come from: paper PMC4118853
